Experiment: in vitro
Conditions: rat, gh3-tre-luc cells, AC50 (uM) modified / 1000
Structures can show the parent of a compound that is named as a salt.
CC50 at 24 h listing for selected molecules.

molecule: O=C(O)Cc1ccc(Cl)cc1Cl
CC50 at 24 h: > 90 µM
--
molecule: CC[N+]1(C)CCCC1
CC50 at 24 h: > 90 µM
--
molecule: O=C1OC(=O)C2C1C1(Cl)C(Cl)=C(Cl)C2(Cl)C1(Cl)Cl (centres unmarked) [Chlorendic anhydride]
CC50 at 24 h: > 90 µM
--
molecule: NC(=O)C1c2ccccc2CCc2ccccc21 [Cyheptamide]
CC50 at 24 h: > 50 µM
--
molecule: O=C1CCCC(=O)C1
CC50 at 24 h: > 90 µM
--
molecule: CCCCc1ncc(/C=C(\Cc2cccs2)C(=O)O)n1Cc1ccc(C(=O)O)cc1 [Eprosartan mesylate]
CC50 at 24 h: > 50 µM
--
molecule: CC(Oc1ccc(Cl)cc1Cl)C(=O)O (centres unmarked)
CC50 at 24 h: > 90 µM
--
molecule: CC(NNC(=O)c1ccccc1)c1ccccc1 (centres unmarked)
CC50 at 24 h: > 50 µM
--
molecule: C=CC(=O)OCC [Ethyl acrylate]
CC50 at 24 h: > 90 µM
--
molecule: CC(=O)c1cccnc1
CC50 at 24 h: > 90 µM
--
molecule: CC1(C)S[C@@H]2[C@H](NC(=O)[C@H](N)c3ccccc3)C(=O)N2[C@H]1C(=O)OC1OC(=O)c2ccccc21 (some centres unmarked) [Talampicillin hydrochloride]
CC50 at 24 h: > 20 µM
--
molecule: Cc1c(N=C=O)cccc1N=C=O [Toluene-2,6-diisocyanate]
CC50 at 24 h: > 90 µM
--
molecule: CO/C=C(/C(=O)OC)c1ccccc1COc1cccc(C(F)(F)F)n1
CC50 at 24 h: > 90 µM
--
molecule: O=[N+]([O-])O[C@@H]1CO[C@H]2[C@@H]1OC[C@@H]2O [Isosorbide 5-mononitrate]
CC50 at 24 h: > 50 µM
--
molecule: c1ccc2sc(SNC3CCCCC3)nc2c1 [N-Cyclohexyl-2-benzothiazolesulfenamide]
CC50 at 24 h: > 90 µM
--
molecule: CC(=O)N/N=C/c1ccc([N+](=O)[O-])o1 [Nihydrazone]
CC50 at 24 h: 17.4 µM
--
molecule: CCC[Si](OC)(OC)OC
CC50 at 24 h: > 90 µM
--
molecule: CC(=O)[C@H]1CC[C@H]2[C@@H]3C=CC4=CC(=O)CC[C@@]4(C)[C@@H]3CC[C@]12C
CC50 at 24 h: > 20 µM
--
molecule: O=C(NCO)NCO
CC50 at 24 h: > 100 µM
--
molecule: CN1CCC[C@@H]1c1cccnc1
CC50 at 24 h: > 50 µM
--
molecule: C=CCC1([C@H](C)CCC)C(=O)NC(=O)NC1=O [R-(+)-Secobarbital]
CC50 at 24 h: > 90 µM
--
molecule: O=C1CC2(CCCC2)CC(=O)N1CCCCN1CCN(c2ncccn2)CC1
CC50 at 24 h: 89.7 µM
--
molecule: COC(=O)c1cccnc1 [Methyl nicotinate]
CC50 at 24 h: > 90 µM
--
molecule: CCCCNCC
CC50 at 24 h: > 90 µM
--
molecule: CCCSP(=O)(OCC)SCCC
CC50 at 24 h: > 90 µM
--
molecule: COc1cc(C(=O)NC2CCCNC2)cc(OC)c1OC (centres unmarked) [Troxipide]
CC50 at 24 h: > 50 µM
--
molecule: CCC[C@@]1(CCc2ccccc2)CC(O)=C([C@H](CC)c2cccc(NS(=O)(=O)c3ccc(C(F)(F)F)cn3)c2)C(=O)O1
CC50 at 24 h: > 50 µM
--
molecule: OCC1CC2CC1C1CCC(CO)C21 (centres unmarked)
CC50 at 24 h: > 90 µM
--
molecule: OCCN(CCO)CCN(CCO)CCO
CC50 at 24 h: > 90 µM
--
molecule: CS(=O)(=O)Nc1cc2occ(NC=O)c(=O)c2cc1Oc1ccccc1
CC50 at 24 h: > 50 µM
--
molecule: c1ccc(CCc2ccccc2)cc1
CC50 at 24 h: > 90 µM
--
molecule: CCN(CCO)CCn1c(Cc2ccccc2)nc2c1c(=O)n(C)c(=O)n2C [Bamifylline Hydrochloride]
CC50 at 24 h: > 50 µM
--
molecule: NCCCC[C@H](NC(=O)[C@@H]1CCCN1C(=O)[C@@H]1CSSC[C@H](N)C(=O)N[C@@H](Cc2ccc(O)cc2)C(=O)N[C@@H](Cc2ccccc2)C(=O)N[C@@H](CCC(N)=O)C(=O)N[C@@H](CC(N)=O)C(=O)N1)C(=O)NCC(N)=O
CC50 at 24 h: > 50 µM
--
molecule: CC1C2CC(CC2C2CCCC(O)C2)C1(C)C (centres unmarked)
CC50 at 24 h: 54.6 µM
--
molecule: CC(CCl)OC(C)CCl (centres unmarked)
CC50 at 24 h: > 90 µM
--
molecule: FC(F)(F)C(F)(F)C(F)(F)C(F)(F)C(F)(F)C(F)(F)C(F)(F)C(F)(F)Br
CC50 at 24 h: > 50 µM
--
molecule: O=P1(N(CCCl)CCCl)NCCCO1 (centres unmarked) [Cyclophosphamide monohydrate]
CC50 at 24 h: > 90 µM
--
molecule: CC(=C(CCO)SSCC1CCCO1)N(C=O)Cc1cnc(C)nc1N (stereo in doubt) [Fursultiamine hydrochloride]
CC50 at 24 h: > 50 µM
